meta.source: PubChem BioAssay

# Assay summary: viability loss with induced miR-34 in A549 – imaging, A549 dox-inducible miR-34, nuclei and caspase counts, primary screen (AID 1347080)
# Condition info: A549 miR-34 inducible, Hoechst nuclei count, 48 h; stronger effect = lower value; cell number ratio, induced over uninduced
Hi there, I'd appreciate the recorded fold change for every entry that follows.
Kindly provide the number alone.

Exam item: Any idea what fold change was measured for Cc1nsc(NC(=O)N2CCCCC2c2nc(C(C)C)no2)n1 (centres undefined) ?
Marked response: 0.906

Exam item: Now try C[C@@H]1COc2c(N3CCN(C)CC3)c(F)cc3c(=O)c(C(=O)O)cn1c23 .
Marked response: 0.906

Exam item: Another compound to check: CCCN(CCc1cccs1)C1CCc2c(O)cccc2C1 (centres undefined)
Marked response: 0.911

Exam item: Same question, O=C(O)c1ccc(-c2cc(Cl)ccc2Cl)o1 this time
Marked response: 0.874

---

# Assay summary: viability loss with induced miR-34 in A549 – imaging, A549 dox-inducible miR-34, nuclei and caspase counts, primary screen (AID 1347080)
# Condition info: A549 miR-34 inducible, Hoechst nuclei count, 48 h; measured here: total cells with miR-34 induction; stronger effect = lower value
Reported endpoint: cell count
Please give only the number in your answer, with no unit.

Exam item: cell count for COc1ccccc1-c1cnn(CC(=O)Nc2cc(C)nn2C)c1 ?
Marked response: 7820

Exam item: Can you check CCOC1OC(=O)CC1NC(=O)C1CCCN1C(=O)C(NC(=O)c1ccc(N)c(Cl)c1)C(C)(C)C (stereo unspecified) next?
Marked response: 8140

Exam item: Follow-up item: Cc1ccc(-c2noc([C@@]34CC[C@@](C)(C(=O)O3)C4(C)C)n2)cc1Cl
Marked response: 8140

Exam item: Then what about the compound COc1cc(C=CC(=O)C=C(O)C=Cc2ccc(O)c(OC)c2)ccc1O ?
Marked response: 8110

Exam item: Try this compound next: Cc1cc(C=C2SC(=S)NC2=O)c(C)n1-c1cccnc1
Marked response: 7760

Exam item: Same read-out for CCOC(=O)C(N)Cc1ccc(-c2cc(OC(c3ccc(Cl)cc3-n3ccc(C)n3)C(F)(F)F)nc(N)n2)cc1 (stereo unspecified) ?
Marked response: 8120

---

# Assay summary: MELAS cybrid and Rieske KO viability enhancers – cell-based, MELAS cybrids, Rieske KO mouse fibroblasts, CellTiter-Glo, primary screen (AID 1508586);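 note: z relative to plate mean and SD of compound and empty wells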
# Condition info: Rieske KO mouse fibroblast survival, low glucose, CellTiter-Glo 72 h
Reported endpoint: z-score
Format: numeric value only, no unit, no commentary.

Exam item: Which z-score value is on record for CC(C)NCCCn1c(Sc2cc3c(cc2I)OCO3)nc2c(N)ncnc21 ?
Marked response: -0.929

Exam item: Same question for CCCCNS(=O)(=O)c1ccccc1 please.
Marked response: 0.108

Exam item: Another compound to check: NS(=O)(=O)c1ccc(C(=O)NCc2ccccc2)cc1
Marked response: -0.575

Exam item: Next record, please: c1ccc(CN2CCC(Nc3ncnc4sccc34)CC2)nc1
Marked response: -0.421

Exam item: Next compound: CC(C)OC(=O)OCOP(=O)(COC(C)Cn1cnc2c(N)ncnc21)OCOC(=O)OC(C)C (stereo not drawn)
Marked response: 0.463

Exam item: Next entry: CNc1nc(Nc2cnn(C3CCN(C4COC4)CC3F)c2Cl)ncc1C(F)(F)F (stereo not drawn)
Marked response: 0.843

Exam item: // same read-out, input: NC1CC1c1ccc(-c2cccc(O)c2)cc1 (stereo not drawn)
Marked response: 0.0465

Exam item: Next up: CN(C)C(=O)c1ccc(S(=O)(=O)c2ccc(NC(=O)C(C)(O)C(F)(F)F)c(Cl)c2)cc1 (stereo not drawn)
Marked response: -0.0234

Exam item: Also C#C[C@@]1(O)CC[C@H]2[C@@H]3CCc4cc(O)ccc4[C@@H]3CC[C@@]21C ?
Marked response: 0.776

Exam item: What about CC[C@@H]1NC(=O)[C@H]2CN(CCC(C)C)CCN2C1=O ?
Marked response: 0.0851

Exam item: Another compound to check: COC(=O)C(CCCN=C(N)N)NS(=O)(=O)c1ccc(C)cc1 (stereo not drawn)
Marked response: 0.752

Exam item: Can you check COC(=O)[C@]12CCC(C)(C)C[C@@H]1[C@@H]1C(=O)C=C3[C@]4(C)C=C(C#N)C(=O)C(C)(C)[C@@H]4CC[C@@]3(C)[C@]1(C)CC2 next?
Marked response: -3.82

Exam item: And the next one, CCC(NC(=O)C(C)NC)C(=O)N1CC(O)CC1Cc1c(-c2[nH]c3cc(F)ccc3c2CC2CC(O)CN2C(=O)C(CC)NC(=O)C(C)NC)[nH]c2cc(F)ccc12 (stereo not drawn) ?
Marked response: -0.265

---

# Assay summary: liver-stage malaria parasite load reduction – cell-based, known kinase inhibitor set, luminescence, hepatoma host viability (AID 624392);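 note: infected cells incubated roughly two days before readout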
# Condition info: Plasmodium liver stage in hepatoma cells, luciferase luminescence, concentration not given here; measured here: host liver cell viability
Reported endpoint: liver cell % of control (%)
Report the figure in % without appending any unit label.

Exam item: Could you tell me which liver cell % of control is on file for CCC(CO)Nc1nc(Nc2cccc(Cl)c2)c2ncn(C(C)C)c2n1 (stereo unspecified) ?
Marked response: 90.3

Exam item: And the next one, CCN1CCN(Cc2ccc(NC(=O)c3ccc(C)c(NC(=O)c4nccn4C)c3)cc2C(F)(F)F)CC1 ?
Marked response: 101

Exam item: Then CCN1CCN(Cc2ccc(NC(=O)c3cc(NC(=O)c4cncc(-c5ccc(C#N)cc5)c4)cc(OC)c3)cc2C(F)(F)F)CC1 ?
Marked response: 77.4

Exam item: Similarly, CCN1CCN(Cc2ccc(NC(=O)c3ccc(C)c(NC(=O)c4ccnnc4)c3)cc2C(F)(F)F)CC1 ?
Marked response: 104

Exam item: # iterate: CC(C)n1cnc2c(Nc3ccc(C(=O)O)cc3)nc(Cl)nc21
Marked response: 88.9

Exam item: Proceed to NC(=O)c1sc(-n2cnc3ccccc32)cc1OCc1ccccc1Br
Marked response: 77.6

Exam item: Repeat for the following molecule: COc1cc(C(=O)N2CCC(N3CCCCC3)CC2)ccc1Nc1nnc(Cl)c(Nc2ccccc2S(C)(=O)=O)n1
Marked response: 97.3

Exam item: Same question for O=C(Nc1ccc(-c2csc(Nc3ccc(Cl)cc3)n2)cc1)c1cccc(C(F)(F)F)c1 please.
Marked response: 104

Exam item: Ok, now O=c1[nH]c2ccccc2c2ncnc(Nc3ccc(OC(F)(F)F)cc3)c12
Marked response: 101

Exam item: Query COc1cccc(-n2ncc3c(N/N=C/c4ccc(S(C)(=O)=O)cc4)ncnc32)c1 next
Marked response: 107

Exam item: Please do the same for COc1cc(NC(=O)c2nccnc2N)cc(C(=O)Nc2cccc(C(F)(F)F)c2)c1 as well.
Marked response: 97.3

Exam item: What would you report for C=CC(=O)Nc1cccc(Oc2ccnc3[nH]ccc23)c1 ?
Marked response: 102

Exam item: Now the molecule CN(c1ccc(OC(F)(F)F)cc1)c1cc(-c2cccc(C(N)=O)c2)ncn1
Marked response: 99.1

Exam item: Then Cc1ccc(C(=O)Nc2cccc(C(F)(F)F)c2)cc1Nc1ccccn1 ?
Marked response: 95

Exam item: Now this one: O=C(Nc1ccc(-c2csc(Nc3ccccc3)n2)cc1)c1cccc(C(F)(F)F)c1
Marked response: 99.8

Exam item: Same thing, different molecule: CCN1CCN(Cc2ccc(NC(=O)c3ccc(C)c(NC(=O)c4ccno4)c3)cc2C(F)(F)F)CC1
Marked response: 100

---

# Assay summary: MELAS cybrid and Rieske KO viability enhancers – cell-based, MELAS cybrids, Rieske KO mouse fibroblasts, CellTiter-Glo, primary screen (AID 1508586);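 note: z relative to plate mean and SD of compound and empty wells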
# Condition info: MELAS cybrid survival, low glucose, CellTiter-Glo 48 h; stronger effect = higher value
Kindly state z-score for each of the entries shown.
Respond using a number only.

Exam item: What value of measured z-score is listed for CC[C@@H]1OC(=O)C[C@H](O)[C@@H](C)[C@@H](O[C@@H]2O[C@H](C)[C@@H](O[C@H]3C[C@@](C)(O)[C@@H](O)[C@H](C)O3)[C@H](N(C)C)[C@H]2O)[C@@H](C=O)C[C@@H](C)C(=O)/C=C/C(C)=C\[C@@H]1CO[C@H]1O[C@@H](C)[C@H](O)[C@H](OC)[C@@H]1OC ?
Marked response: 0.258

Exam item: Now the compound CN(C)CCC=C1c2ccccc2Sc2ccc(Cl)cc21
Marked response: -0.469

Exam item: Also CC(C)c1c(C(=O)Nc2ccccc2)c(-c2ccccc2)c(-c2ccc(F)cc2)n1CCC(O)CC(O)CC(=O)O (configuration not stated) ?
Marked response: 0.917

Exam item: Also COc1ccc(CC(N)C(=O)NC2C(CO)OC(n3cnc4c(N(C)C)ncnc43)C2O)cc1 (configuration not stated) , if possible.
Marked response: -0.998

Exam item: Then this compound: CC1O[C@@H](OC2C(Oc3cc(O)c(C(=O)CCc4ccc(O)cc4)c(O)c3)OC(CO)C(O)C2O)C(O)C(O)C1O (some centres not stated)
Marked response: -0.155

Exam item: Please do the same for O=C(C=Cc1ccccc1)NC(NC(=S)Nc1ccc(Cl)cc1)C(Cl)(Cl)Cl (configuration not stated) as well.
Marked response: -0.431

Exam item: Would you mind doing COc1ccc(C=CC(=O)O)cc1O as well?
Marked response: 0.642

Exam item: Record: COc1cccc(C(=O)N2CCN3C(=O)[C@H](C(C)C)NC(=O)[C@H]3C2)c1
Marked response: -0.0303

Exam item: Next compound: CC(C)NS(=O)(=O)c1cc(NC2CCCCC2)cc(C(=O)NC2Cc3ccccc3C2)c1
Marked response: -0.22

Exam item: What would you report for COC1C=CO[C@@]2(C)Oc3c(C)c(O)c4c(O)c(c(C=NN5CCN(C)CC5)c(O)c4c3C2=O)NC(=O)C(C)=CC=CC(C)C(O)C(C)C(O)C(C)C(OC(C)=O)C1C (some centres not stated) ?
Marked response: -0.298

Exam item: Similarly, O=C(O)C(S)=Cc1c[nH]c2ccc(F)cc12 ?
Marked response: -0.325

Exam item: Next entry: C=CC1CN2CC[C@H]1C[C@H]2C(O)c1ccnc2ccc(OC)cc12 (some centres not stated)
Marked response: -0.205

Exam item: How about Cc1ccc([N+](=O)[O-])cc1S(=O)(=O)N(C)N=Cc1cnc2ccc(Br)cn12 ?
Marked response: -0.394

Exam item: Request: O=C1N[C@@H](COCc2ccccc2)C(=O)N2C[C@@H](NCc3cnn(-c4cccc(F)c4)c3)C[C@@H]12
Marked response: 1.94

Exam item: Please do the same for CCCC(NC(=O)C1[C@H]2CCC[C@H]2CN1C(=O)C(NC(=O)C(NC(=O)c1cnccn1)C1CCCCC1)C(C)(C)C)C(=O)C(=O)NC1CC1 (some centres not stated) as well.
Marked response: -0.469

Exam item: // next record CCCc1cn(CC2CCCN(C(=O)c3nc4ncccn4n3)C2)nn1 (configuration not stated)
Marked response: -0.289

Exam item: Now consider CCCN1CCCCC1C(=O)Nc1c(C)cccc1C (configuration not stated) and answer again.
Marked response: 0.0955
